# Test system: M14
# TEST_PROTOCOL: Cytotoxicity against human M14 cells assessed as cell viability after 72 hrs by MTT assay
# Type: functional, cell-based
# RECORDED_CONDITIONS: M14, 72 h

MOLECULAR_STRING	UNIT	RELATION	IC50
CC(=O)n1cc(/C=C(/C(=O)O)c2ccc3c(c2)OCO3)c2cc(OCc3ccccc3)ccc21	µM	>	100
COc1ccc(/C(=C\c2c[nH]c3ccccc23)C(=O)O)cc1	µM	>	100
COc1cc(/C(=C\c2cn(C(C)=O)c3ccc(OCc4ccccc4)cc23)C(=O)O)cc(OC)c1OC	µM	=	57.1
COc1ccc(/C(=C\c2cn(C(C)=O)c3ccc(OCc4ccccc4)cc23)C(=O)O)cc1	µM	>	100
COc1ccc(/C(=C\c2cn(C(C)=O)c3ccc(OCc4ccccc4)cc23)C(=O)O)cc1OC	µM	=	65.5
COc1ccc(OC)c(/C(=C\c2cn(C(C)=O)c3ccc(OCc4ccccc4)cc23)C(=O)O)c1	µM	=	87.1
NC(=O)/C(=C/c1c[nH]c2ccccc12)c1ccccc1	µM	=	45.4
O=C(O)/C(=C/c1c[nH]c2ccccc12)c1ccccc1	µM	>	100
COc1cccc(/C(=C\c2cn(C(C)=O)c3ccc(OCc4ccccc4)cc23)C(=O)O)c1	µM	>	100
CC(=O)n1cc(/C=C(/C(=O)O)c2ccc(OCc3ccccc3)cc2)c2cc(OCc3ccccc3)ccc21	µM	=	58.2
NC(=O)/C(=C/c1c[nH]c2ccc(OCc3ccccc3)cc12)c1ccccc1	µM	>	100
CC(=O)n1cc(/C=C(/C(=O)O)c2ccccc2)c2cc(OCc3ccccc3)ccc21	µM	>	100
COc1ccc(/C(=C\c2c[nH]c3ccc(OCc4ccccc4)cc23)C(=O)O)cc1	µM	=	58.4
COc1ccccc1/C(=C\c1cn(C(C)=O)c2ccc(OCc3ccccc3)cc12)C(=O)O	µM	>	100
COc1ccc(/C(=C\c2c[nH]c3ccccc23)C(N)=O)cc1	µM	=	53

This collection of values is drawn from ChEMBL document CHEMBL2417450.
